measured_target: hArc-NL (residues 207–277) (Homo sapiens)
test_description: ITC analysis of peptide binding to hArc-NL
condition_parameters: 20 mM Tris-HCl pH 7.4, 150 mM NaCl, +25 °C, one-site binding model
outcome_measure: -TΔS

>>> assay_value("Ac-RIPSYRYR-NH2 [pStg(wt)]")
"+7.0 kcal/mol/°"
>>> assay_value("Ac-TSPKFRSRNESYMRAMST-NH2 [GKAP-R4(long)]")
"+3.1 kcal/mol/°"
>>> assay_value("Ac-TSPKFRSR-NH2 [GKAP-R4]")
"+6.6 kcal/mol/°"
>>> assay_value("Ac-MPGCFRMR-NH2 [GKAP-R5]")
"+4.7 kcal/mol/°"

* * *

measured_target: hArc-CT (residues 206–396, containing both lobes) (Homo sapiens)
test_description: ITC analysis of peptide binding to hArc-CT
condition_parameters: 20 mM Tris-HCl pH 7.4, 150 mM NaCl, +25 °C, one-site binding model
Each entry below lists one item and its recorded -TΔS value.
outcome_measure: -TΔS

>>> assay_value("Ac-TSPKFRSRNESYMRAMST-NH2 [GKAP-R4(long)]")
"+2.2 kcal/mol/°"
>>> assay_value("Ac-TSPKFRSR-NH2 [GKAP-R4]")
"+2.5 kcal/mol/°"
>>> assay_value("Ac-RIPSYRYRYQRRSRSSSRSTE-NH2 [pStg(long)]")
"+14.0 kcal/mol/°"
>>> assay_value("Ac-RIPSYRYR-NH2 [pStg(wt)]")
"+6.4 kcal/mol/°"

* * *

Each entry below lists one item and its recorded ΔH value.
measured_target: hArc-CT (residues 206–396, containing both lobes) (Homo sapiens, UniProt Q7LC44)
Sequence (Q7LC44 206-396): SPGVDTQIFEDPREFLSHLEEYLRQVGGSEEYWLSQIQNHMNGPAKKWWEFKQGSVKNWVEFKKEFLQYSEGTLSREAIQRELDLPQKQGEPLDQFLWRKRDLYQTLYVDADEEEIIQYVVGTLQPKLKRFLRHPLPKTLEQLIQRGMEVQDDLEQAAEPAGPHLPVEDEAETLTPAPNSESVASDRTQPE
test_description: ITC analysis of peptide binding to hArc-CT
condition_parameters: 20 mM Tris-HCl pH 7.4, 150 mM NaCl, +25 °C, one-site binding model
outcome_measure: ΔH

>>> assay_value("Ac-RIPSYRYR-NH2 [pStg(wt)]")
"-12.0 ± 0.2 kcal/mol"
>>> assay_value("Ac-TSPKFRSR-NH2 [GKAP-R4]")
"-6.8 ± 0.1 kcal/mol"
>>> assay_value("Ac-RIPSYRYRYQRRSRSSSRSTE-NH2 [pStg(long)]")
"-20.2 ± 0.2 kcal/mol"
>>> assay_value("Ac-TSPKFRSRNESYMRAMST-NH2 [GKAP-R4(long)]")
"-6.8 ± 0.2 kcal/mol"
